Molecular target: C-X-C chemokine receptor type 4 (Homo sapiens)
Assay: Binding affinity to human CXCR4 in human MDA-MB-231 cells assessed as inhibition of CXCR4-targeted conjugate formation preincubated with compound followed by biotinylated-TN14003 addition and measured after 45 mins by competition based microscopic analysis
Assay type: cell-based
Endpoint name: EC (nM)

a: O=C(CN1CCC(n2nnc(-c3cccs3)n2)CC1)Nc1ccc(Cn2cncn2)cc1
b: O=C(NCCc1c[nH]c2ccccc12)C1CCN(C(=O)Cc2nnc(O)c3ccccc23)CC1
[Q] Hi team, can someone confirm which has the larger EC: a or b ? Thanks. Pick one and reply with its label.
[A] b
(b: 1000 nM, a: 100 nM)
